Experiment: in vitro
Details: monkey
We label by threshold. Values of CC50 at 72 h strictly beneath 20 µM are True. Values of 20 µM and up are False.

* O=C(/C=C/c1ccccc1)OC[C@H](OC(=O)/C=C/c1ccccc1)c1cccc2c1OCO2 [Compound 38] | False
* Cc1ccc([C@@H](COC(=O)/C=C/c2ccccc2)OC(=O)/C=C/c2ccccc2)cc1 [Compound 31] | False
* Cc1ccc([C@H](COC(=O)/C=C/c2ccccc2)OC(=O)/C=C/c2ccccc2)cc1 [Compound 32] | False
* COc1ccc([C@@H](COC(=O)/C=C/c2ccccc2)NC(=O)/C=C/c2ccccc2)cc1OC [Compound 55] | False
* COc1ccc([C@@H](COC(=O)/C=C/c2cc(OC)c(OC)c(OC)c2)OC(=O)/C=C/c2cc(OC)c(OC)c(OC)c2)cc1OC [Compound 56] | False
* O=C(/C=C/c1ccccc1)NC[C@H](OC(=O)/C=C/c1ccccc1)c1ccc2c(c1)OCO2 [Compound 34] | False
* COc1ccccc1[C@H](COC(=O)/C=C/c1ccccc1)OC(=O)/C=C/c1ccccc1 [Compound 12] | False
* COc1ccccc1[C@@H](COC(=O)/C=C/c1ccccc1)OC(=O)/C=C/c1ccccc1 [Compound 11] | True
* COc1cccc([C@@H](CNC(=O)/C=C/c2ccccc2)OC(=O)/C=C/c2ccccc2)c1OC [Compound 21] | False
* COc1cccc([C@@H](CNC(=O)/C=C/c2ccccc2)OC(=O)/C=C/c2ccccc2)c1 [Compound 13] | False
* COc1cccc([C@H](CNC(=O)/C=C/c2ccccc2)OC(=O)/C=C/c2ccccc2)c1 [Compound 14] | False
* COc1cc([C@H](CNC(=O)/C=C/c2ccccc2)OC(=O)/C=C/c2ccccc2)cc(OC)c1OC [Compound 6] | True
* COc1cccc([C@H](COC(=O)/C=C/c2ccccc2)OC(=O)/C=C/c2ccccc2)c1 [Compound 16] | False
* O=C(/C=C/c1ccccc1)OC[C@H](OC(=O)/C=C/c1ccccc1)c1ccccc1 [Compound 28] | False
* COc1ccc([C@H](COC(=O)/C=C/c2ccccc2)OC(=O)/C=C/c2ccccc2)cc1OC [Compound 4] | True

Data credit: patent US10519098B2
